Target: TARS (Homo sapiens, UniProt P26639)
Sequence (P26639 whole entry): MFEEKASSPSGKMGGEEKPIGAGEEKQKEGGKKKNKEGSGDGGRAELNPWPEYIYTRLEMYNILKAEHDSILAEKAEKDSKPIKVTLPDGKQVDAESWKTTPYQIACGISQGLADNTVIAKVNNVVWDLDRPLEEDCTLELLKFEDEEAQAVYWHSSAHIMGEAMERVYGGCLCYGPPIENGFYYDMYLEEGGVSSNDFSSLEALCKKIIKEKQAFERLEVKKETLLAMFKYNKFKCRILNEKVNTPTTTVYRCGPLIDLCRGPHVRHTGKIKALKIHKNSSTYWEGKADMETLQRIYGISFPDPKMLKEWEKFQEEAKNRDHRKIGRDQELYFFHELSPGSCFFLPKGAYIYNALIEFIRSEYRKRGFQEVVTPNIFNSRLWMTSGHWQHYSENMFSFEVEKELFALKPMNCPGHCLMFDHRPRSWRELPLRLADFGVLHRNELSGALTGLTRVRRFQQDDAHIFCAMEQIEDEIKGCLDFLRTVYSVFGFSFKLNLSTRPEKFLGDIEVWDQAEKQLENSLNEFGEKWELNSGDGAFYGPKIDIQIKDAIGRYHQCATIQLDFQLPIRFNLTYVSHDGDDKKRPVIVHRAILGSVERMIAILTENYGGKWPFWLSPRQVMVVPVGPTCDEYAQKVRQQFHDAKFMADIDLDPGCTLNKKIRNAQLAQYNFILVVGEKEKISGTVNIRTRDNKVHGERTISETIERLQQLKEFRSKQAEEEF
Test: Ki of borrelidin compounds for TARS
Type: biochemical
Conditions: calculated; data not shown
VALUE KIND: pKi
One number for each entry, as −log10 of the molar value.

-- ask Consider the compound C[C@@H]1C[C@H](C)C[C@H](C)[C@@H](O)CC(=O)O[C@H]([C@@H]2CCC[C@H]2C(=O)O)C/C=C/C=C(/C#N)[C@H](O)[C@@H](C)C1 [borrelidin] and give its measured pKi.
-- reply 8.34

Reference source for all entries: patent US10125358B2
